# targetEntity: Cathepsin L (Homo sapiens)
measuredMetric: Ki (nM)

- molecule: "CC(NC(=O)C(Cc1cccc2ccccc12)NC(=O)Cc1ccccc1)C(=O)C(=O)NC(Cc1ccccc1)C(=O)NC(C)(C)C(N)=O (stereo not shown)"
  measuredMetric: "Ki"
  observedMeasurement: 70.4
- molecule: "CCC(C)C(NC(=O)C(CC(C)C)NC(=O)CN1CCOCC1)C(=O)C(=O)NCC(=O)NC(Cc1ccc2ccccc2c1)C(N)=O (stereo not shown)"
  measuredMetric: "Ki"
  observedMeasurement: 3.06
- molecule: "CC(C)CC(NC(=O)C(=O)C(C)NC(=O)C(Cc1ccccc1)NC(=O)Cc1ccccc1)C(=O)NC(C)(C)C(N)=O (stereo not shown)"
  measuredMetric: "Ki"
  observedMeasurement: 281
- molecule: "CC(C)CC(NC(=O)OCc1ccccc1)C(=O)NC(C)C(=O)C(=O)N1CCC(C(=O)NC(Cc2ccccc2)C(N)=O)CC1 (stereo not shown)"
  measuredMetric: "Ki"
  observedMeasurement: 4320
- molecule: "CCC(C)C(NC(=O)C(=O)C(C)NC(=O)Cc1ccccc1)C(=O)NC(C)(C)C(=O)O (stereo not shown)"
  measuredMetric: "Ki"
  observedMeasurement: 134000
- molecule: "CC(NC(=O)C(Cc1ccccc1)NC(=O)Cc1ccccc1)C(=O)C(=O)NC(Cc1ccccc1)C(=O)NC(Cc1ccc2ccccc2c1)C(N)=O (stereo not shown) [PHELIX220]"
  measuredMetric: "Ki"
  observedMeasurement: 0.05
- molecule: "CC(C)CC(NC(=O)OCc1ccccc1)C(=O)NC(C)C(=O)C(=O)NCCC(=O)NC(Cc1cccc(C#N)c1)C(N)=O (stereo not shown)"
  measuredMetric: "Ki"
  observedMeasurement: 102

* * *

Measured pKi of individual entries
# targetEntity: Cathepsin L (Homo sapiens, UniProt P07711)
# Sequence (P07711 114-333, species assumed): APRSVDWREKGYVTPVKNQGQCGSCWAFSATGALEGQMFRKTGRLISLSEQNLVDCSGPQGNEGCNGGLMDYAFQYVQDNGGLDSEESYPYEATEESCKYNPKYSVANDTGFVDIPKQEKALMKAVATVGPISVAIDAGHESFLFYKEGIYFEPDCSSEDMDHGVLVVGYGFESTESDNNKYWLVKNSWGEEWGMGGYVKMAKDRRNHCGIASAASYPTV
pKi: −log10 of the molar value.

- compound: "CC(NC(=O)C(Cc1ccccc1)NC(=O)Cc1ccccc1)C(=O)C(=O)NC(Cc1ccccc1F)C(=O)NC(Cc1ccc(-c2ccccc2)cc1)C(N)=O (stereo not drawn)"
  pKi: 10.22
- compound: "CCCCC(NC(=O)C(=O)C(C)NC(=O)C(Cc1ccccc1)NC(=O)Cc1ccccc1)C(=O)NC(C)(C)C(N)=O (stereo not drawn)"
  pKi: 5.12
- compound: "CCC(C)C(NC(=O)C(CC(C)C)NC(=O)OCc1ccccc1)C(=O)C(=O)NC1(C(=O)NC(Cc2ccc3ccccc3c2)C(N)=O)CC1 (stereo not drawn)"
  pKi: 6.50

* * *

# Test system: MERS WT
# assayExplanation: microbe, parasite or virus in culture
# Assay type: cell-based
# studyConditions: Middle East respiratory syndrome-related coronavirus, read-out: MERS WT (μM)
Measured IC50 of individual entries

- molecule: "CC(NC(=O)C(Cc1ccc(F)cc1)NC(=O)Cc1ccccc1)C(=O)C(=O)NC(Cc1ccccc1)C(=O)NC(C)(C)C(N)=O (stereo not drawn)"
  comparativeSign: "="
  IC50 (µM): 184
- molecule: "CC(NC(=O)C(Cc1ccccc1)NC(=O)Cc1ccccc1)C(=O)C(=O)NC(Cc1cccc(F)c1)C(=O)NC(Cc1ccc(-c2ccccc2)cc1)C(N)=O (stereo not drawn)"
  comparativeSign: "="
  IC50 (µM): 0.78
- molecule: "CC(NC(=O)C(Cc1cccc(F)c1)NC(=O)Cc1ccccc1)C(=O)C(=O)NC(Cc1ccccc1)C(=O)NC(C)(C)C(N)=O (stereo not drawn)"
  comparativeSign: "="
  IC50 (µM): 139
- molecule: "Cc1ccccc1CC(=O)NC(Cc1ccccc1)C(=O)NC(C)C(=O)C(=O)NC(Cc1ccccc1)C(=O)NC(C)(C)C(N)=O (stereo not drawn)"
  comparativeSign: "="
  IC50 (µM): 114
- molecule: "CC(C)C[C@H](NC(=O)C(c1ccccc1)c1ccccc1)C(=O)NC(C)C(=O)C(=O)NCC(=O)N[C@@H](Cc1ccc2ccccc2c1)C(N)=O (stereo partly drawn)"
  comparativeSign: ">"
  IC50 (µM): 30
- molecule: "CC(NC(=O)C(Cc1ccccc1)NC(=O)Cc1cccc(F)c1)C(=O)C(=O)NC(Cc1ccccc1)C(=O)NC(C)(C)C(N)=O (stereo not drawn)"
  comparativeSign: ">"
  IC50 (µM): 10

* * *

# targetEntity: Calpain
# assayExplanation: Calpain enzyme assay
# studyConditions: Ki by Morrison equation; pH 7.5, 5 mM CaCl2
Measured Ki of individual entries
measuredMetric: Ki (nM)

- molecule: "Cc1cccc(CC(=O)NC(Cc2ccccc2)C(=O)NC(C)C(=O)C(=O)NC(Cc2ccccc2)C(=O)NC(C)(C)C(N)=O)c1 (stereo not drawn)"
  comparativeSign: ">"
  observedMeasurement: 10000
- molecule: "CCC(C)C(NC(=O)C(CC(C)C)NC(=O)CN1CCOCC1)C(=O)C(=O)NC(Cc1ccc2ccccc2c1)C(N)=O (stereo not drawn)"
  comparativeSign: "="
  observedMeasurement: 10.1
- molecule: "CC(C)CC(NC(=O)Cc1ccc(-c2ccccc2)cc1)C(=O)NC(C)C(=O)C(=O)NCC(=O)NC(Cc1ccc2ccccc2c1)C(N)=O (stereo not drawn)"
  comparativeSign: "="
  observedMeasurement: 21.4
- molecule: "CC(NC(=O)C(Cc1ccccc1)NC(=O)Cc1ccccc1)C(=O)C(=O)NC(Cc1ccccc1)C(=O)NC(Cc1ccc(-c2ccccc2)cc1)C(N)=O (stereo not drawn) [PHELIX247]"
  comparativeSign: ">"
  observedMeasurement: 10000
- molecule: "CCC(C)C(NC(=O)C(CC(C)C)NC(=O)OCc1ccccc1)C(=O)C(=O)NC(Cc1cc2ccccc2[nH]1)C(N)=O (stereo not drawn)"
  comparativeSign: "="
  observedMeasurement: 34.1
- molecule: "CC[C@H](C)C(NC(=O)[C@H](CC(C)C)NC(=O)OCc1ccccc1)C(=O)C(=O)N[C@@H](Cc1cccnc1)C(N)=O (stereo partly drawn)"
  comparativeSign: "="
  observedMeasurement: 26.7

* * *

# targetEntity: Cathepsin B (Homo sapiens)
# assayExplanation: Cathepsin B enzyme assay
# studyConditions: Cat B (μM), Ki by Morrison equation; pH 6.0, substrate Z-Phe-Arg-Amc
*1 amine or outer side, *2 acyl side, *3 side chain or, on linkers, in order; H or OH if unused. Where a SMILES comes first, the peptide text is derived from it. [ ]: non-standard residue; d: D form. The star is where a group is joined. ξ: configuration not given here. ξβ3hPhe(2-oxo) = O=C(C(=O)[*:2])C(Cc1ccccc1)N[*:1]; Cbz = O=C(OCc1ccccc1)*
Measured Ki of individual entries

- compound: "CC(NC(=O)C(Cc1ccccc1F)NC(=O)Cc1ccccc1)C(=O)C(=O)NC(Cc1ccccc1)C(=O)NC(C)(C)C(N)=O (stereo not drawn) [PHELIX207]"
  readoutUnits: "µM"
  comparativeSign: "="
  Ki: 0.187
- compound: "C=CCOC(=O)NCCCCC(NC(=O)C(=O)C(NC(=O)C(CC(C)C)NC(=O)C(Cc1ccccc1)NC(=O)OCc1ccccc1)C(C)CC)C(N)=O (stereo not drawn) [PHELIX269]"
  readoutUnits: "µM"
  comparativeSign: "="
  Ki: 0.763
- compound: "CC(C)CC(NC(=O)OCc1ccccc1)C(=O)NC(Cc1ccccc1)C(=O)C(=O)NC(C)C(=O)NC(CCC(=O)O)C(=O)NC(CCCNC(=N)N)C(N)=O (stereo not drawn) [PHELIX252] (Cbz-L[ξβ3hPhe(2-oxo)]AER-NH2; configuration not given here)"
  readoutUnits: "µM"
  comparativeSign: ">"
  Ki: 10

* * *

# targetEntity: Calpain
# assayExplanation: Calpain enzyme assay
# Assay type: biochemical
# studyConditions: Ki by Morrison equation; pH 7.5, 5 mM CaCl2
pKi: −log10 of the molar value. *1 amine or outer side, *2 acyl side, *3 side chain or, on linkers, in order; H or OH if unused. Where a SMILES comes first, the peptide text is derived from it. [ ]: non-standard residue; d: D form. The star is where a group is joined. 2Nal = N[CH](Cc1ccc2ccccc2c1)C(=O)O; X2 = C=CCOCC(N[*:1])C(=O)C(=O)[*:2]; Ser(allyl) = C=CCOC[CH](N)C(=O)O; PhAc = O=C(Cc1ccccc1)*
Measured pKi of individual entries
measuredMetric: pKi

- compound: "CC[C@H](C)C(NC(=O)[C@H](CC(C)C)NC(=O)OCc1ccccc1)C(=O)C(=O)NCC(=O)N[C@H](Cc1ccc2ccccc2c1)C(N)=O (stereo partly drawn) [PHELIX304]"
  targetEntity: "Calpain"
  measuredMetric: "pKi"
  comparativeSign: "="
  observedMeasurement: 8.08
- compound: "CC(NC(=O)C(Cc1cccc(C(F)(F)F)c1)NC(=O)Cc1ccccc1)C(=O)C(=O)NC(Cc1ccccc1)C(=O)NC(C)(C)C(N)=O (stereo not drawn) [PHELIX209]"
  targetEntity: "Calpain"
  measuredMetric: "pKi"
  comparativeSign: "<"
  observedMeasurement: 5.00
- compound: "CC(NC(=O)C(Cc1ccccc1)NC(=O)Cc1ccccc1)C(=O)C(=O)NC(Cc1ccccc1)C(=O)NC(Cc1ccc2ccccc2c1)C(N)=O (stereo not drawn) [PHELIX215]"
  targetEntity: "Calpain"
  measuredMetric: "pKi"
  comparativeSign: "<"
  observedMeasurement: 5.00
- compound: "CCC(C)C(NC(=O)C(=O)C(Cc1ccccc1)NC(=O)C(Cc1ccccc1)NC(=O)Cc1ccccc1)C(=O)NC(C)(C)C(=O)O (stereo not drawn) [PHELIX150]"
  targetEntity: "Calpain"
  measuredMetric: "pKi"
  comparativeSign: "="
  observedMeasurement: 5.29
- compound: "CCC(C)C(NC(=O)C(CC1CC1)NC(=O)Cc1ccccc1)C(=O)C(=O)NCC(=O)NC(Cc1ccc2ccccc2c1)C(N)=O (stereo not drawn) [PHELIX332]"
  targetEntity: "Calpain"
  measuredMetric: "pKi"
  comparativeSign: "="
  observedMeasurement: 8.63
- compound: "C=CCOCC(NC(=O)Cc1ccccc1)C(=O)NC(CC(C)C)C(=O)NC(COCC=C)C(=O)C(=O)NCC(=O)NC(Cc1ccc2ccccc2c1)C(N)=O (stereo not drawn) [PHELIX200] (PhAc-[Ser(allyl)]L[X2]G[2Nal]-NH2; configuration not given here)"
  targetEntity: "Calpain"
  measuredMetric: "pKi"
  comparativeSign: "="
  observedMeasurement: 8.18
- compound: "CC(NC(=O)C(Cc1ccccc1)NC(=O)Cc1ccccc1)C(=O)C(=O)NC(Cc1ccccc1)C(=O)NC(Cc1ccc(-c2ccccc2)cc1)C(N)=O (stereo not drawn) [PHELIX213]"
  targetEntity: "Calpain"
  measuredMetric: "pKi"
  comparativeSign: "<"
  observedMeasurement: 5.00
- compound: "CCC(C)C(NC(=O)C(NC(=O)Cc1ccccc1)C(C)(C)C)C(=O)C(=O)NCC(=O)NC(Cc1ccc2ccccc2c1)C(N)=O (stereo not drawn) [PHELIX323]"
  targetEntity: "Calpain"
  measuredMetric: "pKi"
  comparativeSign: "="
  observedMeasurement: 5.63
- compound: "CCC(C)C(NC(=O)C(Cc1c[nH]cn1)NC(=O)Cc1ccccc1)C(=O)C(=O)NCC(=O)NC(Cc1ccc2ccccc2c1)C(N)=O (stereo not drawn) [PHELIX302]"
  targetEntity: "Calpain"
  measuredMetric: "pKi"
  comparativeSign: "="
  observedMeasurement: 6.70
- compound: "CCC(C)C(NC(=O)C(CC(C)C)NC(=O)Cc1ccncc1)C(=O)C(=O)NCC(=O)N(C)C(Cc1ccccc1)C(N)=O (stereo not drawn) [PHELIX353]"
  targetEntity: "Calpain"
  measuredMetric: "pKi"
  comparativeSign: "="
  observedMeasurement: 8.52
- compound: "CC(NC(=O)C(Cc1ccccc1)NC(=O)Cc1ccccc1)C(=O)C(=O)NC(Cc1ccc(-c2ccccc2)cc1)C(=O)NC(C)(C)C(N)=O (stereo not drawn) [PHELIX241]"
  targetEntity: "Calpain"
  measuredMetric: "pKi"
  comparativeSign: "<"
  observedMeasurement: 5.00
- compound: "CCC(C)C(NC(=O)C(CC(C)C)NC(=O)OCc1ccccc1)C(=O)C(=O)NCC(=O)NC(Cc1ccc(C#N)cc1)C(N)=O (stereo not drawn) [PHELIX350]"
  targetEntity: "Calpain"
  measuredMetric: "pKi"
  comparativeSign: "="
  observedMeasurement: 8.46
